Cited source: ChEMBL document CHEMBL1201862

test system: HOP-62; test: NCI tumour cell line growth inhibition, 48 h
Calls of active or inactive are those of the source. No stated cut-off is given here; in the data, active = GI50 up to about 1.1 µM and inactive = higher.
Classes used: True for active, False for inactive

# molecule, assigned-class
rows = [
    ("CCc1ccccc1N1CCN(C(=O)c2cc(OC)c(OC)c(OC)c2)CC1", "True"),
    ("NC1CCCCC1", "False"),
    ("OC(CCN1CCCCC1)(c1ccccc1)c1ccccc1 [PRIDINOL]", "False"),
    ("CCOC(=O)C1=C(C)N(c2ccc(Cl)cc2)C2(O)C=CC(=O)C3C(=O)N(c4ccccc4)C(=O)C132 (configuration not stated)", "False"),
    ("Cc1ccc(NC(=O)CCC(=O)C2CC(=O)CC/C2=N\\NC(=O)c2cc3ccccc3cc2O)cc1C (configuration not stated)", "False"),
    ("O=C(O)C12C=CC(C1)c1ccccc12 (configuration not stated)", "False"),
    ("Cn1ncc2cc3c(Nc4ccc(Cl)cc4)cccc3nc21", "False"),
]
